Exercise: state measured microsomal CLint at 1 μM for each of the compounds provided.
Assay: in vitro
Conditions: ICR (CD-1), mouse, microsomes, pH 7.4

-- ask Could you share which microsomal CLint at 1 μM value was measured for [2H]C([2H])([2H])N1CCC[C@H]1COc1nc2c(c(N3CCN(C(=O)C=C)[C@@H](CC#N)C3)n1)CCN(c1cccc3cccc(C)c13)C2 ?
-- reply 60.9 µL/min/mg

-- ask State the recorded microsomal CLint at 1 μM for this entry: C=C(F)C(=O)N1CCN(c2nc(OC[C@@H]3CCCN3C)nc3c2CCN(c2cccc4cccc(Cl)c24)C3)C[C@@H]1CC#N [MRTX849, reference compound]
-- reply 139 µL/min/mg

-- ask Look at this compound and give its reported microsomal CLint at 1 μM. [2H]C([2H])([2H])c1cccc2cccc(N3CCc4c(nc(OC[C@@H]5CCCN5C)nc4N4CCN(C(=O)C=C)[C@@H](CC#N)C4)C3)c12
-- reply 66.5 µL/min/mg

-- ask Record request: microsomal CLint at 1 μM value, item [2H]C([2H])([2H])N1CCC[C@H]1COc1nc2c(c(N3CCN(C(=O)C=C)[C@@H](CC#N)C3)n1)CCN(c1cccc3cccc(Cl)c13)C2
-- reply 95.3 µL/min/mg

-- ask Reported microsomal CLint at 1 μM, compound [2H]C([2H])([2H])N1CCC[C@H]1COc1nc2c(c(N3CCN(C(=O)C(=C)F)[C@@H](CC#N)C3)n1)CCN(c1cccc3cccc(Cl)c13)C2 : ____
-- reply 113 µL/min/mg

---

Target: KRAS G12C protein (Homo sapiens, UniProt P01116, G12C)
Construct: H358 cells (ATCC, CRL-5807) expressing KRAS G12C protein; host or cells: H358 (NCI-H358) cells
Sequence (P01116 1-188 isoform P01116-2 G12C): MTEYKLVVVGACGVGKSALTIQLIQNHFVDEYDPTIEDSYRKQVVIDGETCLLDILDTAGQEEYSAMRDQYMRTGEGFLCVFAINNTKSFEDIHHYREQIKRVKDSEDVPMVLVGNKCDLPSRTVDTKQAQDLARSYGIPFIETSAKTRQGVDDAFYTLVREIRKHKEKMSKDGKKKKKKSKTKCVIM
Assay: ERK protein phosphorylation assay (p-ERK) in H358 cells
Assay type: cell-based
Design: scale not given here
Details: H358 cells expressing KRAS G12C protein, 3 h incubation with compound; read-out: IC50, inhibiting phosphorylation of KRAS G12C protein-mediated downstream signaling (p-ERK)
Protocol: The cells were cultured in a 5% CO2 cell incubator for 16 h. The serially diluted compound was added to the cell medium with Echo550 at a final DMSO concentration of 0.5%, and the incubation was continued for 3 h. Then 8% paraformaldehyde (Solarbio, P1112) was added at 40 μL/well, followed by incubation at room temperature for 20 min. […] Finally, the cell culture plate was inverted and centrifuged at 1000 rpm for 1 min, after which fluorescence signals were read using Odyssey CLx.
Metric Name: IC50

-- ask Field request: IC50 | item: [2H]C([2H])([2H])N1CCC[C@H]1COc1nc2c(c(N3CCN(C(=O)C=C)[C@@H](CC#N)C3)n1)CCN(c1cncc3cccc(C)c13)C2 [Compound 30]
-- reply < 1 µM

-- ask Find the recorded IC50 belonging to [2H]C([2H])([2H])c1cccc2cccc(N3CCc4c(nc(OC[C@@H]5CCCN5C([2H])([2H])[2H])nc4N4CCN(C(=O)C(=C)F)C[C@@H]4C)C3)c12 [Compound 23] and report it.
-- reply < 1 µM

-- ask Entry [2H]C([2H])([2H])N1CCC[C@H]1COc1nc2c(c(N3CCN(C(=O)C=C)[C@@H](CC#N)C3)n1)CCN(c1cccc3cccc([11CH3])c13)C2 [Compound 22] has what IC50?
-- reply < 1 µM

---

Assay: Stability test in human plasma
Conditions: human plasma, 37° C., 30 min
Metric Name: Remaining percentage (%) 30 min
Give your result in % as a bare value.

-- ask Name the reported Remaining percentage (%) 30 min value associated with the molecule CC(C)[N+](C)(CCOC(=O)C1c2ccccc2Oc2ccccc21)C(C)C [Propantheline Bromide, reference compound]
-- reply 33.35

-- ask Which Remaining percentage (%) 30 min reading was recorded for the molecule [2H]C([2H])([2H])c1cccc2cccc(N3CCc4c(nc(OC[C@@H]5CCCN5C([2H])([2H])[2H])nc4N4CCN(C(=O)C=C)[C@@H](CC#N)C4)C3)c12 ?
-- reply 97.00

-- ask Entry [2H]C([2H])([2H])N1CCC[C@H]1COc1nc2c(c(N3CCN(C(=O)C=C)[C@@H](CC#N)C3)n1)CCN(c1cccc3cccc(C)c13)C2 : reported Remaining percentage (%) 30 min = ?
-- reply 90.36

-- ask # get_value(readout='Remaining percentage (%) 30 min', item= [2H]C([2H])([2H])c1cccc2cccc(N3CCc4c(nc(OC[C@@H]5CCCN5C)nc4N4CCN(C(=O)C=C)[C@@H](CC#N)C4)C3)c12 )
-- reply 92.80
